Test system: HeLa cells
Experiment: In vitro expression of firefly luciferase (Fluc) after treatment with Fluc mRNA/amino lipidated peptoid formulations, no PEG or 2% DMG-PEG2000
Assay type: cell-based
Condition notes: no PEG, peptoid:Fluc mRNA 5:1 w/w, 100 ng/well, 6 h of treatment
Readout: Luciferase Expression (RLU) 6 h
Give the value in RLU but do not write RLU after it.

Molecule: CCCCCCCCCCN(CC(N)=O)C(=O)CN(CCCCCCCCCC)C(=O)CN(CCCCCCCCCC)C(=O)CN(CCCCCCCCCC)C(=O)CN(CCCCCCCCCC)C(=O)CN(CCCCCCCCCC)C(=O)CN(CCCCCCCCCC)C(=O)CN(CCc1ccccc1)C(=O)CN(CCc1ccccc1)C(=O)CN(CCN)C(=O)CN(CCc1ccccc1)C(=O)CN(CCc1ccccc1)C(=O)CN(CCN)C(=O)CN(CCc1ccccc1)C(=O)CN(CCc1ccccc1)C(=O)CNCCN [Compound 23]
Target entity: HeLa cells
Unit of measure: RLU
Luciferase Expression (RLU) 6 h: 5.60E+01

Molecule: CCCCCCCCCCN(CC(N)=O)C(=O)CN(CCCCCCCCCC)C(=O)CN(CCCCCCCCCC)C(=O)CN(CCc1ccccc1)C(=O)CN(CCc1ccccc1)C(=O)CN(CCN)C(=O)CN(CCc1ccccc1)C(=O)CN(CCc1ccccc1)C(=O)CN(CCN)C(=O)CN(CCc1ccccc1)C(=O)CN(CCc1ccccc1)C(=O)CNCCN [Compound 7]
Target entity: HeLa cells
Unit of measure: RLU
Luciferase Expression (RLU) 6 h: 6.45E+03

Now consider a different molecule.
Ask: // query Luciferase Expression (RLU) 6 h value for entry CCCCCCCCN(CC(N)=O)C(=O)CN(CCCCCCCC)C(=O)CN(CCc1ccccc1)C(=O)CN(CCc1ccccc1)C(=O)CN(CCN)C(=O)CN(CCc1ccccc1)C(=O)CN(CCc1ccccc1)C(=O)CN(CCN)C(=O)CN(CCc1ccccc1)C(=O)CN(CCc1ccccc1)C(=O)CNCCN [Compound 1]
Result: 1.22E+02
